- TARGET_ENTITY: GST-Hu-p50 (Homo sapiens, UniProt P19838 7-356)
- Sequence (P19838 7-356): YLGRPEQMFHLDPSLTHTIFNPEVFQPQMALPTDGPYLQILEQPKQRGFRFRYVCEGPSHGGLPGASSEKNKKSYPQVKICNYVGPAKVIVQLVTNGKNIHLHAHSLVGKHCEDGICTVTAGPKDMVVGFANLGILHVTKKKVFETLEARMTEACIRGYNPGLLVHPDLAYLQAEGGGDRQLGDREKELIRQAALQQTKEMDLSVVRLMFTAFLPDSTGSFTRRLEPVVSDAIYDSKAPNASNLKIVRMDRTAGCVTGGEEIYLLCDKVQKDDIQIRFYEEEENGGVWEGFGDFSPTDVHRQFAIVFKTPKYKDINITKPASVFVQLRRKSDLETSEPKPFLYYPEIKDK
- PROTOCOL_DETAILS: protein-binding microarray (PBM); PBM: ~300 nM protein, 6 mM HEPES pH 7.8, 80 mM KCl, 0.5 mM EDTA, 0.5 mM EGTA, 6% glycerol, 35 ng/ul poly-dIdC, 1% milk, 1 h, room temperature; Ap Aiptasia and Nv Nematostella (sea anemones) / Co Capsaspora / Aq Amphimedon (sponge) / Dm Drosophila / Hu human; RHD is the Rel homology domain; high values mean tight binding
- EXPERIMENTAL_SETUP: dsDNA, one strand shown
Rule: 1 (yes) for binding signal not less than 3 z-score, 0 (no) for anything less.

[
  {
    "PRIMARY_SEQUENCE": "CCGATTAACATCAACCCCGTTTCTGATGTTAATCGGGTCTTGATTCGCTTGACGCTGCTG",
    "CATEGORY_LABEL": "0 (no)"
  },
  {
    "PRIMARY_SEQUENCE": "CCGATTAACATCAGGCTATCCCCTGATGTTAATCGGGTCTTGATTCGCTTGACGCTGCTG",
    "CATEGORY_LABEL": "1 (yes)"
  },
  {
    "PRIMARY_SEQUENCE": "CCGATTAACATCATCCCCGTGTCTGATGTTAATCGGGTCTTGATTCGCTTGACGCTGCTG",
    "CATEGORY_LABEL": "0 (no)"
  },
  {
    "PRIMARY_SEQUENCE": "CCGATTAACATCAAACAATTCCCTGATGTTAATCGGGTCTTGATTCGCTTGACGCTGCTG",
    "CATEGORY_LABEL": "1 (yes)"
  },
  {
    "PRIMARY_SEQUENCE": "CCGATTAACATCACGAAAATCCCTGATGTTAATCGGGTCTTGATTCGCTTGACGCTGCTG",
    "CATEGORY_LABEL": "1 (yes)"
  },
  {
    "PRIMARY_SEQUENCE": "CCGATTAACATCAGGGGGGGACCTGATGTTAATCGGGTCTTGATTCGCTTGACGCTGCTG",
    "CATEGORY_LABEL": "1 (yes)"
  },
  {
    "PRIMARY_SEQUENCE": "CCGATTAACATCACGGAATACCCTGATGTTAATCGGGTCTTGATTCGCTTGACGCTGCTG",
    "CATEGORY_LABEL": "1 (yes)"
  },
  {
    "PRIMARY_SEQUENCE": "CCGATTAACATCAAGGAATTACCTGATGTTAATCGGGTCTTGATTCGCTTGACGCTGCTG",
    "CATEGORY_LABEL": "0 (no)"
  },
  {
    "PRIMARY_SEQUENCE": "CCGATTAACATCACGGTGGGAAATGATGTTAATCGGGTCTTGATTCGCTTGACGCTGCTG",
    "CATEGORY_LABEL": "0 (no)"
  },
  {
    "PRIMARY_SEQUENCE": "CCGATTAACATCACTTTACCCCCTGATGTTAATCGGGTCTTGATTCGCTTGACGCTGCTG",
    "CATEGORY_LABEL": "1 (yes)"
  },
  {
    "PRIMARY_SEQUENCE": "CCGATTAACATCAAAGAAGCCCCTGATGTTAATCGGGTCTTGATTCGCTTGACGCTGCTG",
    "CATEGORY_LABEL": "1 (yes)"
  },
  {
    "PRIMARY_SEQUENCE": "CCGATTAACATCAGGAATTGCCCTGATGTTAATCGGGTCTTGATTCGCTTGACGCTGCTG",
    "CATEGORY_LABEL": "0 (no)"
  },
  {
    "PRIMARY_SEQUENCE": "CCGATTAACATCATTAATGACGGTGATGTTAATCGGGTCTTGATTCGCTTGACGCTGCTG",
    "CATEGORY_LABEL": "0 (no)"
  },
  {
    "PRIMARY_SEQUENCE": "CCGATTAACATCAGGGGCCGTAATGATGTTAATCGGGTCTTGATTCGCTTGACGCTGCTG",
    "CATEGORY_LABEL": "0 (no)"
  },
  {
    "PRIMARY_SEQUENCE": "CCGATTAACATCACTATTTTCCCTGATGTTAATCGGGTCTTGATTCGCTTGACGCTGCTG",
    "CATEGORY_LABEL": "1 (yes)"
  },
  {
    "PRIMARY_SEQUENCE": "CCGATTAACATCAGGGGTTTCCATGATGTTAATCGGGTCTTGATTCGCTTGACGCTGCTG",
    "CATEGORY_LABEL": "1 (yes)"
  },
  {
    "PRIMARY_SEQUENCE": "CCGATTAACATCAGGGTAAAACCTGATGTTAATCGGGTCTTGATTCGCTTGACGCTGCTG",
    "CATEGORY_LABEL": "0 (no)"
  },
  {
    "PRIMARY_SEQUENCE": "CCGATTAACATCAAATAGCCCCCTGATGTTAATCGGGTCTTGATTCGCTTGACGCTGCTG",
    "CATEGORY_LABEL": "1 (yes)"
  },
  {
    "PRIMARY_SEQUENCE": "CCGATTAACATCAGGAAGGCCCCTGATGTTAATCGGGTCTTGATTCGCTTGACGCTGCTG",
    "CATEGORY_LABEL": "0 (no)"
  },
  {
    "PRIMARY_SEQUENCE": "CCGATTAACATCACCCTTGCAGGTGATGTTAATCGGGTCTTGATTCGCTTGACGCTGCTG",
    "CATEGORY_LABEL": "0 (no)"
  },
  {
    "PRIMARY_SEQUENCE": "CCGATTAACATCAGGGGAGCCCCTGATGTTAATCGGGTCTTGATTCGCTTGACGCTGCTG",
    "CATEGORY_LABEL": "1 (yes)"
  },
  {
    "PRIMARY_SEQUENCE": "CCGATTAACATCATGGAGGGAGGTGATGTTAATCGGGTCTTGATTCGCTTGACGCTGCTG",
    "CATEGORY_LABEL": "0 (no)"
  },
  {
    "PRIMARY_SEQUENCE": "CCGATTAACATCAGGGGGTACACTGATGTTAATCGGGTCTTGATTCGCTTGACGCTGCTG",
    "CATEGORY_LABEL": "1 (yes)"
  },
  {
    "PRIMARY_SEQUENCE": "CCGATTAACATCAGGGGGTGTTATGATGTTAATCGGGTCTTGATTCGCTTGACGCTGCTG",
    "CATEGORY_LABEL": "1 (yes)"
  },
  {
    "PRIMARY_SEQUENCE": "CCGATTAACATCAAAAACTACCCTGATGTTAATCGGGTCTTGATTCGCTTGACGCTGCTG",
    "CATEGORY_LABEL": "1 (yes)"
  },
  {
    "PRIMARY_SEQUENCE": "CCGATTAACATCACCAAATTTCCTGATGTTAATCGGGTCTTGATTCGCTTGACGCTGCTG",
    "CATEGORY_LABEL": "0 (no)"
  },
  {
    "PRIMARY_SEQUENCE": "CCGATTAACATCAGGGTATTACCTGATGTTAATCGGGTCTTGATTCGCTTGACGCTGCTG",
    "CATEGORY_LABEL": "1 (yes)"
  },
  {
    "PRIMARY_SEQUENCE": "CCGATTAACATCAAAGAAATCCCTGATGTTAATCGGGTCTTGATTCGCTTGACGCTGCTG",
    "CATEGORY_LABEL": "1 (yes)"
  },
  {
    "PRIMARY_SEQUENCE": "CCGATTAACATCAGGGACGGAAATGATGTTAATCGGGTCTTGATTCGCTTGACGCTGCTG",
    "CATEGORY_LABEL": "0 (no)"
  },
  {
    "PRIMARY_SEQUENCE": "CCGATTAACATCAGGGAGACCCCTGATGTTAATCGGGTCTTGATTCGCTTGACGCTGCTG",
    "CATEGORY_LABEL": "1 (yes)"
  },
  {
    "PRIMARY_SEQUENCE": "CCGATTAACATCAGGGGTTTACCTGATGTTAATCGGGTCTTGATTCGCTTGACGCTGCTG",
    "CATEGORY_LABEL": "1 (yes)"
  },
  {
    "PRIMARY_SEQUENCE": "CCGATTAACATCAGGGATTCACCTGATGTTAATCGGGTCTTGATTCGCTTGACGCTGCTG",
    "CATEGORY_LABEL": "1 (yes)"
  },
  {
    "PRIMARY_SEQUENCE": "CCGATTAACATCAGGGCAAAAAATGATGTTAATCGGGTCTTGATTCGCTTGACGCTGCTG",
    "CATEGORY_LABEL": "0 (no)"
  },
  {
    "PRIMARY_SEQUENCE": "CCGATTAACATCACGAGTTTCCCTGATGTTAATCGGGTCTTGATTCGCTTGACGCTGCTG",
    "CATEGORY_LABEL": "0 (no)"
  }
]
